TARGET OF ASSAY: human mPGES-1 (Homo sapiens, UniProt O14684)
Sequence (O14684 1-152): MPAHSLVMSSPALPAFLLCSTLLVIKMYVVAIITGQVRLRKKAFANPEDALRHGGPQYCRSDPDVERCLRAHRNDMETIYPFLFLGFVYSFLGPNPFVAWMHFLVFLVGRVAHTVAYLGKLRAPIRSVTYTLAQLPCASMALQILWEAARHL
IC50 listing for selected molecules.
Your answer should be a plain number; it is taken to be in nM.

CHEMICAL STRING | READING
NS(=O)(=O)c1ccccc1NS(=O)(=O)c1cccc(-c2cccc3c2oc2ccccc23)c1 | 2200
CCOc1ccccc1/C=C/S(=O)(=O)Nc1ccccc1S(N)(=O)=O | 380
NS(=O)(=O)c1cc(F)ccc1NS(=O)(=O)/C=C/c1ccc(-c2ccccc2)cc1 | 84

Please supply the value of reported IC50 for the item `Cc1nnc(COc2ccc(NS(=O)(=O)CCc3ccc(Cl)cc3)c(S(N)(=O)=O)c2)o1`
1600

Please supply the value of reported IC50 for the item `Cc1ccncc1-c1cccc(S(=O)(=O)Nc2ccccc2S(N)(=O)=O)c1`
4800

Please supply the value of reported IC50 for the item `NS(=O)(=O)c1cc(F)ccc1NS(=O)(=O)/C=C/c1ccc(OC(F)F)cc1`
1600

Please supply the value of reported IC50 for the item `N#Cc1ccc(/C=C/S(=O)(=O)Nc2ccccc2S(N)(=O)=O)cc1`
1100

Please supply the value of reported IC50 for the item `COc1ccccc1/C=C/S(=O)(=O)Nc1ccc(F)cc1S(N)(=O)=O`
360

Please supply the value of reported IC50 for the item `NS(=O)(=O)c1ccccc1NS(=O)(=O)c1cccc(-c2ccc(Cl)c(Cl)c2)c1`
220

Please supply the value of reported IC50 for the item `NS(=O)(=O)c1c(F)cccc1NS(=O)(=O)/C=C/c1ccc(Cl)cc1`
570

Please supply the value of reported IC50 for the item `COc1ccc(Br)cc1/C=C/S(=O)(=O)Nc1cccc(F)c1S(N)(=O)=O`
290

###

TARGET OF ASSAY: human mPGES-1 (Homo sapiens)
pIC50: −log10 of the molar value.
Values of pIC50 greater than or equal to 6 map to True; values below map to False.

Example entries and their recorded answers appear below.
CHEMICAL STRING | ASSIGNED LABEL
COc1ncccc1-c1cccc(S(=O)(=O)Nc2ccccc2S(N)(=O)=O)c1 | False
NS(=O)(=O)c1ccc(F)cc1NS(=O)(=O)/C=C/c1ccccc1C(F)(F)F | True

Is pIC50 at least 6? Consider `Cc1ccc(NS(=O)(=O)c2cccc(-c3cccc(OC(F)(F)F)c3)c2)c(S(N)(=O)=O)c1`
False

Is pIC50 at least 6? Consider `N#Cc1ccc(/C=C/S(=O)(=O)Nc2ccc(F)cc2S(N)(=O)=O)cc1`
False

###

TARGET OF ASSAY: human mPGES-1 (Homo sapiens, UniProt O14684)
Sequence (O14684 1-152): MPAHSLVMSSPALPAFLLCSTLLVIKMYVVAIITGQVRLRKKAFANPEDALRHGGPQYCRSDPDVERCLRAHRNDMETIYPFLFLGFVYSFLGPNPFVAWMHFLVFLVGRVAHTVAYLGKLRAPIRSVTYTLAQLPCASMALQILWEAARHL
pIC50 listing for selected molecules.
Expect pIC50 as a plain number equal to -log10 of the molar concentration.

Below, 5 molecules whose answers are already recorded.
CHEMICAL STRING | MEASURE NAME | READING
COc1ncc(-c2cccc(S(=O)(=O)Nc3ccncc3S(N)(=O)=O)c2)cc1Cl | pIC50 | 5.68
NS(=O)(=O)c1cc(Oc2ccccc2)ccc1NS(=O)(=O)c1cccc(-c2cccc(OC(F)(F)F)c2)c1 | pIC50 | 5.27
NS(=O)(=O)c1ccc(F)cc1NS(=O)(=O)/C=C/c1ccc(-c2ccccc2)cc1 | pIC50 | 6.80
NS(=O)(=O)c1ccccc1NS(=O)(=O)CCc1ccc(-c2ccco2)cc1 | pIC50 | 6.72
NS(=O)(=O)c1ccccc1NS(=O)(=O)CCc1ccc(C#CC2CCCCC2)nc1 | pIC50 | 6.57

Please supply the value of reported pIC50 for the item `COc1cc(Cl)ccc1CCS(=O)(=O)Nc1ccncc1S(N)(=O)=O`
5.04

Please supply the value of reported pIC50 for the item `COc1cc(Cl)ccc1CCS(=O)(=O)Nc1cc(Cl)ccc1S(N)(=O)=O`
6.89

Please supply the value of reported pIC50 for the item `NS(=O)(=O)c1ccccc1NS(=O)(=O)c1cccc(-c2ccc(C(F)(F)F)cc2)c1`
5.43
